Cited source for all entries: patent US20170210813A1

t1/2 reference
measured on: T1, Macaca fascicularis PDGFRb.mmh (Macaca fascicularis)
T1 construct: Soluble monomeric construct; also called mfPDGFRb.mmh
T1 chain: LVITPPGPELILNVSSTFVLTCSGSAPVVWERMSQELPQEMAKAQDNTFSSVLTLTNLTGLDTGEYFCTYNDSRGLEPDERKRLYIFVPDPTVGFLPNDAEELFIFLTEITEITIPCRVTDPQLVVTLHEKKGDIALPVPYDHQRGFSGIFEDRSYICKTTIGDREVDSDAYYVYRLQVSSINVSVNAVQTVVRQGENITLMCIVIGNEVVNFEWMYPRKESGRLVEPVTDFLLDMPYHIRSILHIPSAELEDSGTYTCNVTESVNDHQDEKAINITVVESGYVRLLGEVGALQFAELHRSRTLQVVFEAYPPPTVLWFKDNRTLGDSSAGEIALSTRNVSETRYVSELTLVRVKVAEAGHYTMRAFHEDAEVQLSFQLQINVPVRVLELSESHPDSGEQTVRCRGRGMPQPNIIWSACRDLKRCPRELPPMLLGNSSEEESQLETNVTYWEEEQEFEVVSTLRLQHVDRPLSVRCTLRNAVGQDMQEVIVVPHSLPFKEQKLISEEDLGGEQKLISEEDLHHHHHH
method: SPR, mAb captured, 25 C

| binder | t1/2 |
| --- | --- |
| H1M3374N (antibody, V domains shown, mouse Fc format; also called H2M3374N) VH: QLQLQESGPGLVKPSETLSLTCTVSGGSITSSSYYWGWIRQPPGKGLEWIGSIYYRGSTNYNPSLKSRVTISVDSSKNQFYLKVSSVTAVDTAVYYCARQNGAARPSWFDPWGQGTLVTVSS VL: EIVLTQSPDTISLSPGERATLSCRASQSISSIYLAWYQQKPGQAPRLLIYGASSRVTGIPDRFSVSGSGTDFTLTISRLEPEDFAVYYCQHYGISPFTFGPGTKVDIR | 31 min |
| H4H3105S (antibody, human IgG4, V domains shown, human IgG4 Fc (H4H prefix)) VH: QVQLVESGGSLVQPGGSLRLACTASGFTFSSYWMSWVRQAPGKGLEWVANIQQDENEKYYVDSVKGRFSISRDNAKKSLYLQMNSLRVEDTAVYFCARDLVPPRQGDYYHYFGMDVWGQGTTVTVSS VL: DIQLTQSPSTLSASVGDRVTITCRASQSISDWLAWYQQKPGKAPNLLIYKASTLESGVPSRFSGSGSGTEFTLTISSLQPDDFATYYCQQYNSYSRTFGQGTKVEIK | 12 min |
| H4H3094P (antibody, human IgG4, V domains shown, also called H4H3394P) VH: EVQLVESGGGLVQPGGSLRLSCAASGFTFSSYWMSWVRQAPGKGLEWVANMNQDGSETHYVDSVKGRLSISRDNAKKSLFLHMNSLRAEDTAVYFCARDLVPPRQDDYYYYFGMDVWGHGTTVTVSS VL: DIQMTQSPSTLSASVGDRVTITCRASQSISDWLAWYQQKPGKAPKLLIFKASTLESGVPSRFSGSGSGTEFTLTISSLQPDDFATYYCQQYNSYSRTFGQGTKVEIK | 40 min |
